Molecular target: Dipeptidyl peptidase 4 (Homo sapiens) (UniProt P27487)
Sequence (P27487 whole entry, looked up): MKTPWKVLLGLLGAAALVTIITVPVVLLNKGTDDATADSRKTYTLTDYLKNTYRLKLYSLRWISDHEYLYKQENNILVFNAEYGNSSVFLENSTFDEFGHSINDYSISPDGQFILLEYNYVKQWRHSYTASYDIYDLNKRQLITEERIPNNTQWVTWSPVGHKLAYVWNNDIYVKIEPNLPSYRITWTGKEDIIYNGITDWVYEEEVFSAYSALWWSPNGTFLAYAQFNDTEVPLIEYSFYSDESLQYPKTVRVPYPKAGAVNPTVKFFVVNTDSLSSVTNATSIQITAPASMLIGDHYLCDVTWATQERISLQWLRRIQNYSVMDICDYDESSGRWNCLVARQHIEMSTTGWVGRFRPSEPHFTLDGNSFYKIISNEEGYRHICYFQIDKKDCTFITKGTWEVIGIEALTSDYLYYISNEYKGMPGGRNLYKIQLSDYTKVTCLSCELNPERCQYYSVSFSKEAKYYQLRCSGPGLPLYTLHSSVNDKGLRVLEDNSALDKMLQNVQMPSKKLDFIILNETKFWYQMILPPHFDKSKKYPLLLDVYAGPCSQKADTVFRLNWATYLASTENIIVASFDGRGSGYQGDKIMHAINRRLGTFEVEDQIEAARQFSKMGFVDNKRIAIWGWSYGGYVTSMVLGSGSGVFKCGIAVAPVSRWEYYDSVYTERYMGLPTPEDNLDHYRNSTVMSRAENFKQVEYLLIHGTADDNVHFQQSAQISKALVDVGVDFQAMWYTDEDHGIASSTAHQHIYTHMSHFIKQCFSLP
Assay: Inhibition of DPP4 at 100 uM
METRIC: inhibition

Name the recorded inhibition of the compound listed here: Cc1cc(=O)oc2c3c(ccc12)OCC(CO)(CN1CCOCC1)C3=O (stereo not given) 12%

For CCOCC1(CN2CCCC2)COc2ccc3c(C)cc(=O)oc3c2C1=O (stereo not given) , write its inhibition. 13.2%

Please give the documented inhibition of Cc1cc(=O)oc2c3c(ccc12)OCC(CO)(CN1CCCC1)C3=O (stereo not given) 8.3%

Tell me measured inhibition for CCOCC1(CN2CCCCC2)COc2ccc3c(C)cc(=O)oc3c2C1=O (stereo not given) please. 12.6%

---

Target: Dipeptidyl peptidase 4 (Homo sapiens)
Test: Inhibition of DPP4 at 100 uM
Calls of active or inactive are those of the source. No cut-off for these calls is given here.
METRIC: inhibition

Use these answered entries as a reference point.
CCOCC1(CN2CCN(c3ccccc3)CC2)COc2ccc3c(C)cc(=O)oc3c2C1=O (stereo not given)    inactive
Cc1cc(=O)oc2c3c(ccc12)OCC(CN1CCOCC1)(CN1CCOCC1)C3=O    8.8%
Cc1cc(=O)oc2c3c(ccc12)OCC(CO)(CN1CCCCC1)C3=O (stereo not given)    inactive
CCN(CC)CC1(CN(CC)CC)COc2ccc3c(C)cc(=O)oc3c2C1=O    8.1%

Now turn to the next molecule.
Indicate the recorded inhibition value for this molecule: Cc1cc(=O)oc2c3c(ccc12)OCC(CN1CCN(C)CC1)(CN1CCN(C)CC1)C3=O 12.5%

---

Target: Tyrosine-protein phosphatase non-receptor type 1 (Homo sapiens, UniProt P18031)
Sequence (P18031 whole entry): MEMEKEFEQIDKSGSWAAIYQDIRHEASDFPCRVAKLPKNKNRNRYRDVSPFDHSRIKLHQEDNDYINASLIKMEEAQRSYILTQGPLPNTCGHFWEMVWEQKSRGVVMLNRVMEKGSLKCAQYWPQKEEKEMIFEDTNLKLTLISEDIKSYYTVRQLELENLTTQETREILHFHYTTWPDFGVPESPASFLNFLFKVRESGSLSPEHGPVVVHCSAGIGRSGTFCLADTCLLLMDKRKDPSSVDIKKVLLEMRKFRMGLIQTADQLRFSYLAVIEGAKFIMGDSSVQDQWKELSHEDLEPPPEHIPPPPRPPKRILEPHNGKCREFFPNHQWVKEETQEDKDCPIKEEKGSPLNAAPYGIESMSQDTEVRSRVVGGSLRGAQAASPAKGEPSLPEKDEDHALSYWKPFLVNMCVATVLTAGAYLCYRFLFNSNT
Provide the reported pIC50 of each item.
// scale note: pIC50 = -log10(conc_M); give the bare number

Provide only the value of recorded pIC50 for CCOCC1(CN(CC)CC)COc2ccc3c(C)cc(=O)oc3c2C1=O (centres undefined) 4.04

Please give measured pIC50 of the following entry: Cc1cc(=O)oc2c3c(ccc12)OCC(CO)(CN1CCOCC1)C3=O (centres undefined) 4.28

Please report the measured pIC50 for CCOCC1(CN2CCOCC2)COc2ccc3c(C)cc(=O)oc3c2C1=O (centres undefined) 4.61

Give me measured pIC50, please, for this compound: CCOCC1(CN2CCN(c3ccccc3)CC2)COc2ccc3c(C)cc(=O)oc3c2C1=O (centres undefined) 4.15

---

Molecular target: Tyrosine-protein phosphatase non-receptor type 1 (Homo sapiens)
Assay: Inhibition of PTP1B at 100 uM
Tag: yes if measured inhibition is not below 40%, no if it is.

Does the reported inhibition for Cc1cc(=O)oc2c3c(ccc12)OCC(CN1CCCC1)(CN1CCCC1)C3=O fall at or above the 40% mark? no

Is inhibition for Cc1cc(=O)oc2c3c(ccc12)OCC(CO)(CN1CCCCC1)C3=O (centres undefined) at or above 40%? yes

Threshold query (inhibition >= 40%) on Cc1cc(=O)oc2c3c(ccc12)OCC(CN1CCOCC1)(CN1CCOCC1)C3=O no

Has Cc1cc(=O)oc2c3c(ccc12)OCC(CN1CCCCC1)(CN1CCCCC1)C3=O a recorded inhibition greater than or equal to 40%? no

# bool: inhibition of CCN(CC)CC1(CN(CC)CC)COc2ccc3c(C)cc(=O)oc3c2C1=O >= 40% yes

Decide: is the reported value of inhibition for CCCCN(CCCC)CC1(COCC)COc2ccc3c(C)cc(=O)oc3c2C1=O (centres undefined) equal to or greater than 40%? yes

Could you verify whether the entry Cc1cc(=O)oc2c3c(ccc12)OCC(CN1CCN(c2ccccn2)CC1)(CN1CCN(c2ccccn2)CC1)C3=O shows inhibition of no less than 40%? yes

Evaluate CCOCC1(CN2CCN(c3ccccc3)CC2)COc2ccc3c(C)cc(=O)oc3c2C1=O (centres undefined) : inhibition at minimum 40%? yes

Does inhibition meet or surpass 40% for CCOCC1(CN2CCCC2)COc2ccc3c(C)cc(=O)oc3c2C1=O (centres undefined) ? yes
